// reported inhibition at 10 µM per item
target-desc: human CB2 receptor (Homo sapiens, UniProt P34972)
Construct: expressed in transfected cells; host or cells: human embryonic kidney (HEK) cells, Semliki Forest Virus system, membrane preparations
Sequence (P34972 whole entry): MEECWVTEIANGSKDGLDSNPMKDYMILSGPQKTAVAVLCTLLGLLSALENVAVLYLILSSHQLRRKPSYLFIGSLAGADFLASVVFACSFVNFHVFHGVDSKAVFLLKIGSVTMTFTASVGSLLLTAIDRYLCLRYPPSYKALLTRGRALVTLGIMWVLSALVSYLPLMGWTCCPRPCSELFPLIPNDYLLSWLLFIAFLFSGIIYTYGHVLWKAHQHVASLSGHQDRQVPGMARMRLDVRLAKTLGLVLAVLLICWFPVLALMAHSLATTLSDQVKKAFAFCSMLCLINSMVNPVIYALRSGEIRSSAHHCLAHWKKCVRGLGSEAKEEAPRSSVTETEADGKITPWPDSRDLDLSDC
experiment-notes: CB2 receptor affinity ([3H]-CP-55,940 displacement, HEK cell membranes)
Format: binding
run-conditions: displacement of radioligand [3H]-CP-55,940

molecule: O=C(Nc1cnc(OCC(F)(F)F)c(-c2ccc(Cl)cc2)c1)c1ccncc1 [Example 4]
inhibition at 10 µM (%): 1.9

molecule: O=C(Nc1cnc(OCC(F)(F)F)c(-c2ccc(Cl)c(F)c2)c1)c1cncnc1 [Example 53]
inhibition at 10 µM (%): 0

molecule: Cc1ncccc1C(=O)Nc1cnc(OCC(F)(F)F)c(-c2ccc(Cl)cc2)c1 [Example 29]
inhibition at 10 µM (%): 19

molecule: O=C(Nc1cnc(OCC(F)(F)F)c(-c2ccc(Cl)cc2)c1)c1ccccn1 [Example 7]
inhibition at 10 µM (%): 1.2

molecule: O=C(Nc1cnc(OCC(F)(F)F)c(-c2ccc(Cl)cc2)c1)[C@H]1CCOC1 (racemic) [Example 71]
inhibition at 10 µM (%): 4

molecule: O=C(Nc1cnc(OCC(F)(F)F)c(-c2ccc(Cl)cc2)c1)c1cncnc1 [Example 19]
inhibition at 10 µM (%): -10

molecule: CCCC(=O)Nc1cnc(OCC(F)(F)F)c(-c2ccc(Cl)cc2)c1 [Example 6]
inhibition at 10 µM (%): 11

molecule: O=C(Nc1cnc(OC2CCC2)c(-c2ccc(Cl)cc2)c1)c1cccnc1 [Example 79]
inhibition at 10 µM (%): 13

molecule: CCc1ccc(-c2cc(NC(=O)c3cncnc3)cnc2OCC(F)(F)F)cc1 [Example 56]
inhibition at 10 µM (%): 0

====

target-desc: human CB2 receptor (Homo sapiens)
Construct: expressed in transfected cells; host or cells: human embryonic kidney (HEK) cells, Semliki Forest Virus system, membrane preparations
experiment-notes: CB2 receptor affinity ([3H]-CP-55,940 displacement, HEK cell membranes)
Type: binding
run-conditions: displacement of radioligand [3H]-CP-55,940

compound-string: O=C(Nc1cnc(OCC(F)(F)F)c(-c2ccc(Cl)cc2)c1)c1ccnc(O)c1
inhibition at 10 µM, %: 0.9

compound-string: Cc1cc(-c2cc(NC(=O)c3ccnc(O)c3)cnc2OCC(F)(F)F)ccc1Cl
inhibition at 10 µM, %: -18

compound-string: O=C(Nc1cnc(OCC(F)(F)F)c(-c2ccc(Cl)cc2)c1)c1cccnc1
inhibition at 10 µM, %: 8

compound-string: Cc1cc(C(=O)Nc2cnc(OCC(F)(F)F)c(-c3ccc(Cl)cc3)c2)no1
inhibition at 10 µM, %: -1

====

target-desc: human CB1 receptor (Homo sapiens)
Construct: expressed in transfected cells; host or cells: human embryonic kidney (HEK) cells, Semliki Forest Virus system, membrane preparations
Sequence (P21554 whole entry): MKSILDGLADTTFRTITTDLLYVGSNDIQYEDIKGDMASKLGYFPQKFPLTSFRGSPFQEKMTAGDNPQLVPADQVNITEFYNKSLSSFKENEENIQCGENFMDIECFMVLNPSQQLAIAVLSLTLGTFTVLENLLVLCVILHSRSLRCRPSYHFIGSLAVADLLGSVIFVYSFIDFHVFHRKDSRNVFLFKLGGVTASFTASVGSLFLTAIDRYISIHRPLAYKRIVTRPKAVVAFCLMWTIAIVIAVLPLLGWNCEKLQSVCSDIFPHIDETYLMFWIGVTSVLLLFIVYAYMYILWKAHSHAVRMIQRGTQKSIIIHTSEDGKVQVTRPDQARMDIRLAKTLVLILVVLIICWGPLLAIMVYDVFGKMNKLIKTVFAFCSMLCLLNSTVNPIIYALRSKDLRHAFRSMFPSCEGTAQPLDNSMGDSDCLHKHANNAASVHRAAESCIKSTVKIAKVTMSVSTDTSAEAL
experiment-notes: CB1 receptor affinity ([3H]-CP-55,940 displacement, HEK cell membranes)
Format: binding
run-conditions: displacement of radioligand [3H]-CP-55,940
The following molecules are shown together with reported inhibition at 10 µM values.

compound-string: O=C(Nc1cnc(OCC(F)(F)F)c(-c2ccc(Cl)cc2)c1)c1ccco1
target-desc: human CB1 receptor (Homo sapiens)
unit-abbrev: %
inhibition at 10 µM: 30
--
compound-string: O=C(Nc1cnc(OCC(F)(F)F)c(-c2cccc(Cl)c2)c1)c1cccnc1
target-desc: human CB1 receptor (Homo sapiens)
unit-abbrev: %
inhibition at 10 µM: 1
--
compound-string: C[C@H](Oc1ncc(NC(=O)c2cccnc2)nc1-c1ccc(Cl)cc1)C(F)(F)F
target-desc: human CB1 receptor (Homo sapiens)
unit-abbrev: %
inhibition at 10 µM: 40
--
compound-string: Cc1cc(-c2cc(NC(=O)c3cncc(C#N)c3)cnc2OCC(F)(F)F)ccc1Cl
target-desc: human CB1 receptor (Homo sapiens)
unit-abbrev: %
inhibition at 10 µM: 17
--
compound-string: Cc1cc(-c2cc(NC(=O)c3cccnn3)cnc2OCC(F)(F)F)ccc1Cl
target-desc: human CB1 receptor (Homo sapiens)
unit-abbrev: %
inhibition at 10 µM: -4
--
compound-string: Cc1cc(-c2cc(NC(=O)c3cnc4c(c3)OCCN4C)cnc2OCC(F)(F)F)ccc1Cl
target-desc: human CB1 receptor (Homo sapiens)
unit-abbrev: %
inhibition at 10 µM: 16
--
compound-string: Cc1ocnc1C(=O)Nc1cnc(OCC(F)(F)F)c(-c2ccc(Cl)cc2)c1
target-desc: human CB1 receptor (Homo sapiens)
unit-abbrev: %
inhibition at 10 µM: 27
--
compound-string: Nc1ccc(-c2cc(NC(=O)c3cncc(I)c3)cnc2OCC(F)(F)F)cc1Cl
target-desc: human CB1 receptor (Homo sapiens)
unit-abbrev: %
inhibition at 10 µM: 13
